# System: HEL
# measurement_protocol: cell viability (% survival relative to DMSO control, bortezomib = 0%); higher = less cytotoxic
# condition_info: 10 nM; 72 h
measurement_name: cell viability (%)

Clc1ccc2c(c1Cl)CNCC2 | 111
Nc1ccn([C@@H]2O[C@H](CO)[C@@H](O)[C@@H]2O)c(=O)n1 | 95.2
C#Cc1cnc(O)nc1O | 92.2
COc1c(C)c2c(c(O)c1C/C=C(\C)CCC(=O)O)C(=O)OC2 | 108
CC(Cc1ccc(O)c(O)c1)C(C)Cc1ccc(O)c(O)c1 (stereo not given) | 106

---

# Tested on: HL-60
# measurement_protocol: cell viability (% survival relative to DMSO control); higher = less cytotoxic
# condition_info: 0.01 µM; 72 h; co-treatment: GSK2194069 100 nM
measurement_name: cell viability (%)

COc1c(C)c2c(c(O)c1C/C=C(\C)CCC(=O)O)C(=O)OC2 | 86.3
O=C(COc1ccc(C(=O)c2ccccc2)cc1)NC1CCN(Cc2ccccc2)CC1 | 103
C1CCC(C(CC2CCCCN2)C2CCCCC2)CC1.O=C(O)/C=C\C(=O)O (stereo not drawn) | 91.3
C[C@]12CC[C@H](O)CC1=CC[C@@H]1[C@@H]2CC[C@]2(C)C(c3cccnc3)=CC[C@@H]12 | 96.1
C[C@H]1O[C@@H](O[C@H]2[C@@H](O)C[C@H](O[C@H]3[C@@H](O)C[C@H](O[C@H]4CC[C@@]5(C)[C@H](CC[C@@H]6[C@@H]5C[C@@H](O)[C@]5(C)[C@@H](C7=CC(=O)OC7)CC[C@]65O)C4)O[C@@H]3C)O[C@@H]2C)C[C@H](O)[C@@H]1O | 79.1
N[C@](CCCCB(O)O)(CCN1CCCCC1)C(=O)O | 100
O=C(O)CCc1ccc(NCc2cccc(Oc3ccccc3)c2)cc1 | 98.1
O=c1c2ccccc2[se]n1-c1ccccc1 | 102
CC12CCC(O)CC1CCC1C2CCC2(C)C(C3=CC(=O)OC3)CCC12O (stereo not drawn) | 99.7
O=C(Nc1ccccc1)c1cc([N+](=O)[O-])ccc1Cl | 92.6
[N-]=[N+]=CC(=O)CC[C@H](N)C(=O)O | 101
NC(=O)c1ncn([C@@H]2O[C@H](CO)[C@@H](O)[C@H]2O)n1 | 76.6
O=C(O)c1cc2sccc2[nH]1 [4H-thieno[3,2-b]pyrrole-5-carboxylic acid] | 101

Data provenance: the supplement of paper PMC8671470
